- Test system: HB3
- assay_method_text: qHTS profiling for inhibitors of Plasmodium falciparum proliferation (AID 504749); also: nearly all actives have a fitted effect of over 60% in size; also: potency is read from the fitted curve at half-maximal effect
- reported_conditions: P. falciparum in erythrocytes, SYBR Green DNA, 72 h; series mostly up to 28.7 µM
Records with an inconclusive call do not appear. Active and inactive are the calls of the source. Calls follow the shape of the dose curve; as a rule, active = well fitted inhibition curve with a large enough effect; inconclusive = small, poorly fitted or top-dose-only effect; inactive = flat fitted curve, though single readings scatter.

>  <compound>
CCC(C(=O)O)C1OC(C(C)C(O)C(C)C(=O)C(CC)C2OC3(C=CC(O)C4(CCC(C)(C5CCC(O)(CC)C(C)O5)O4)O3)C(C)CC2C)C(C)CC1C (stereo unspecified)

>  <Potency>
79.4 nM (active)

$$$$
>  <compound>
Nc1nc(F)nc2c1ncn2[C@@H]1O[C@H](CO)[C@@H](O)[C@H]1O

>  <Potency>
inactive

$$$$
>  <compound>
CC1(C)SC2[C@@H](N=CN3CCCCCC3)C(=O)N2[C@H]1C(=O)O (stereo partly specified)

>  <Potency>
inactive

$$$$
>  <compound>
OC[C@@H](O)C(O[C@@H]1O[C@@H](CO)[C@H](O)[C@H](O)[C@H]1O)[C@H](O)[C@@H](O)CO (stereo partly specified)

>  <Potency>
inactive

$$$$
>  <compound>
C=C1[C@@H]2CC[C@H](C2)C1(C)C

>  <Potency>
inactive

$$$$
>  <compound>
NC(=O)C1CC2(NC(=O)NC2=O)c2cc(F)ccc2O1 (stereo unspecified)

>  <Potency>
inactive

$$$$
>  <compound>
CC1(C(=O)O)CCC2(C)CCC3(C)C(=CC(=O)C4C5(C)CCC(O)C(C)(C)C5CCC43C)C2C1 (stereo unspecified)

>  <Potency>
inactive

$$$$
>  <compound>
C=CC1CN2CCC1CC2[C@@H](O)c1ccnc2ccc(OC)cc12 (stereo partly specified)

>  <Potency>
158 nM (active)

$$$$
>  <compound>
CC(=O)NC1[C@H](O)C[C@@](O)(C(=O)O)O[C@H]1[C@H](O)[C@H](O)CO (stereo partly specified)

>  <Potency>
inactive

$$$$
>  <compound>
CC(O)C(N)C(=O)O (stereo unspecified)

>  <Potency>
inactive

$$$$
>  <compound>
CO/N=C(/C(=O)N[C@@H]1C(=O)N2C(C(=O)O)=C(C[n+]3ccc(N)n3CCO)CS[C@H]12)c1csc(N)n1

>  <Potency>
inactive

$$$$

---

- target_desc: Cytochrome P450 3A4 (Homo sapiens)
- assay_method_text: qHTS Assay for Inhibitors and Substrates of Cytochrome P450 3A4 (AID 884); also: potency is read from the fitted curve at half-maximal effect; nearly all actives have a fitted effect of over 50% in size
- reported_conditions: recombinant CYP3A4, Luciferin-PPXE luminescence; series mostly up to 57.1 µM
Records with an inconclusive call do not appear. Active and inactive are the calls of the source. The call rests on the fitted dose curve; in most records, active means well fitted inhibition curve with a large enough effect; inconclusive means small, poorly fitted or top-dose-only effect; inactive means no such curve, though single readings can be large or run the other way.
value_type: Potency

>  <compound>
CCCc1cc2c(n1Cc1ccc(OC)cc1)C(C)C1CN(C(=O)c3ccccc3)C(C)(C(=O)OC)C21 (centres undefined)

>  <value_type>
Potency

>  <value>
3160 nM (active)

$$$$
>  <compound>
O=C(Nc1ccc2ccccc2c1)[C@H]1C[C@@H]1[C@H](NP(=O)(c1ccccc1)c1ccccc1)c1ccccc1

>  <value_type>
Potency

>  <value>
2510 nM (active)

$$$$
>  <compound>
CNC(=O)[C@H](C)[C@@H]1C[C@@]1(C)[C@@H](NC(=O)OCc1ccccc1)c1ccccc1

>  <value_type>
Potency

>  <value>
2510 nM (active)

$$$$

---

- assay_method_text: qHTS for Inhibitors of Plasmodium falciparum (CP250) proliferation (AID 504320)
- reported_conditions: P. falciparum CP250 in erythrocytes, SYBR Green DNA, 72 h; series mostly up to 6.7 µM
Records with an inconclusive call do not appear. The source made the active and inactive calls. The call rests on the fitted dose curve; in most records, active means well fitted inhibition curve with a large enough effect; inconclusive means small, poorly fitted or top-dose-only effect, or effect the other way; inactive means flat fitted curve, though single readings scatter.

>  <compound>
CC1(OC(=O)CCc2ccccc2)C(=O)C=C2C=C(c3ccc(C#N)cc3)N(CCN3CCOCC3)C=C2C1=O (stereo not drawn)

>  <outcome>
inactive

$$$$
>  <compound>
CCC(=O)OC1(C)C(=O)C=C2C=C(CCCCNC(=O)OC(C)(C)C)OC=C2C1=O (stereo not drawn)

>  <outcome>
inactive

$$$$
>  <compound>
CCCCc1nc2c(c3c1C[C@H](C)OC3)CN(C(=O)C1CC1)CC2

>  <outcome>
inactive

$$$$
>  <compound>
COc1ccc(-c2nc3c(c4c2C[C@H](c2ccccc2)OC4)CN(C(=O)NCCc2c[nH]c4ccccc24)CC3)c(C)c1

>  <outcome>
inactive

$$$$
>  <compound>
COC(=O)N[C@H](C(C(=O)OC)=C(C)NCc1ccccc1)c1cccc(F)c1

>  <outcome>
inactive

$$$$
>  <compound>
COC/C=C/C1=CC2=CC(=O)C(C)(OC(=O)c3cnc4ccccc4n3)C(=O)C2=CN1CC(C)C (stereo not drawn)

>  <outcome>
inactive

$$$$
>  <compound>
COCCN1C(=O)N[C@@H](c2cccc(C(F)(F)F)c2)[C@@H](C(=O)OC)[C@H]1C

>  <outcome>
inactive

$$$$
>  <compound>
COC(=O)CCC(=O)OC1(C)C(=O)C=C2C=C(C3CC3)N(Cc3ccccc3)C=C2C1=O (stereo not drawn)

>  <outcome>
inactive

$$$$

---

- Test system: CP237
- assay_method_text: qHTS profiling for inhibitors of Plasmodium falciparum proliferation (AID 504749); also: nearly all actives have a fitted effect of over 60% in size
- reported_conditions: P. falciparum in erythrocytes, SYBR Green DNA, 72 h; series mostly up to 28.7 µM
Results filed as inconclusive are left out. Calls of active or inactive are those of the source. Calls come from the whole dose curve; as a rule, active = well fitted inhibition curve with a large enough effect; inconclusive = small, poorly fitted or top-dose-only effect; inactive = flat fitted curve, though single readings scatter.
Classes used: yes = active, no = inactive

>  <compound>
CCC(=O)OC1C(N(C)C)CC(C)O[C@H]1O[C@H]1[C@H](C)[C@@H](O[C@H]2CC(OC)[C@@H](O)C(C)O2)[C@H](C)C(=O)O[C@@H](CC)[C@](C)(O)[C@@H](O)[C@H](C)C(=O)[C@@H](C)C[C@]1(C)O (stereo not given in full)

>  <classification>
no

$$$$
>  <compound>
CCCCCCCCCCCCCCCC(=O)OCC(COP(=O)(O)OCC[N+](C)(C)C)OC(=O)CCCCCCCCCCCCCCC (stereo not given)

>  <classification>
no

$$$$
>  <compound>
CN1[C@H]2CC(OC(=O)[C@H](CO)c3ccccc3)C[C@H]1[C@H]1O[C@H]12 (stereo not given in full)

>  <classification>
no

$$$$
>  <compound>
CC1OC(OC2CCC3(C)C(CCC4C3CC(O)C3(C)C(C5=CC(=O)OC5)CCC43O)C2)CC(O)C1OC1CC(O)C(OC2CC(O)C(OC3OC(CO)C(O)C(O)C3O)C(C)O2)C(C)O1 (stereo not given)

>  <classification>
no

$$$$
>  <compound>
CCC(C)C(N)C(=O)O (stereo not given)

>  <classification>
no

$$$$
>  <compound>
CC(=O)CC(c1ccccc1)C1C(=O)Oc2ccccc2C1=O (stereo not given)

>  <classification>
no

$$$$
>  <compound>
O=c1[nH]c(=O)n(C2C[C@H](O)[C@@H](CO)O2)cc1C(F)(F)F (stereo not given in full)

>  <classification>
no

$$$$
>  <compound>
O=C(O)C(O)c1ccccc1 (stereo not given)

>  <classification>
no

$$$$
>  <compound>
CC(=O)OC1C([N+]2(C)CCCCC2)C[C@H]2C3CC[C@H]4C[C@H](OC(C)=O)C([N+]5(C)CCCCC5)CC4(C)C3CCC12C (stereo not given in full)

>  <classification>
no

$$$$
>  <compound>
Cc1ccc(S(=O)(=O)NC(=O)NC(C)Cc2ccccc2)cc1 (stereo not given)

>  <classification>
no

$$$$
>  <compound>
CN(C)CC[C@@](O)(c1ccccc1)c1ccccc1Cl

>  <classification>
yes

$$$$
>  <compound>
Cc1cc2nc3c(=O)[nH]c(=O)nc-3n(CC(O)C(O)C(O)COP(=O)(O)O)c2cc1C (stereo not given)

>  <classification>
no

$$$$
>  <compound>
C=C1[C@@H]2CC[C@H](C2)C1(C)C

>  <classification>
no

$$$$
>  <compound>
COC(=O)C1C2CC3c4[nH]c5cc(OC)ccc5c4CCN3CC2CC(OC)C1OC (stereo not given)

>  <classification>
no

$$$$
>  <compound>
COc1ccc(C(=O)/C(Br)=C/C(=O)O)cc1

>  <classification>
no

$$$$
>  <compound>
Cn1cc(C(=O)[C@@H]2CCc3[nH]cnc3C2)c2ccccc21

>  <classification>
no

$$$$
>  <compound>
CCCC[C@H]1C(=O)N(c2ccccc2)N(c2ccc(O)cc2)C1=O

>  <classification>
no

$$$$
>  <compound>
COc1cccc(OC)c1C(=O)NC1C(=O)N2C1SC(C)(C)C2C(=O)O (stereo not given)

>  <classification>
no

$$$$
>  <compound>
CC(=O)N1CC(O)CC1C(=O)O (stereo not given)

>  <classification>
no

$$$$
>  <compound>
COC(c1ccccc1)(c1ccccc1)C(Oc1nc(C)cc(C)n1)C(=O)O (stereo not given)

>  <classification>
no

$$$$
>  <compound>
Nc1nc(Cl)nc2c1ncn2[C@@H]1O[C@H](CO)[C@H](O)C1F (stereo not given in full)

>  <classification>
no

$$$$
>  <compound>
Cc1cn([C@H]2CC(F)[C@@H](CO)O2)c(=O)[nH]c1=O (stereo not given in full)

>  <classification>
no

$$$$
>  <compound>
Nc1nc2[nH]cc(CCc3ccc(C(=O)NC(CCC(=O)O)C(=O)O)cc3)c2c(=O)[nH]1 (stereo not given)

>  <classification>
yes

$$$$
>  <compound>
CCCCC(=O)O[C@]1(C(=O)CO)CCC2C3CCC4=CC(=O)CCC4(C)C3C(O)CC21C (stereo not given in full)

>  <classification>
no

$$$$
>  <compound>
CC(=O)NC1[C@H](O)C[C@@](O)(C(=O)O)O[C@H]1[C@H](O)[C@H](O)CO (stereo not given in full)

>  <classification>
no

$$$$
>  <compound>
O=C1CC[C@H](C(=O)N[C@@H]2C[C@H]2c2ccccc2)N1

>  <classification>
no

$$$$
>  <compound>
CC(C)C(=O)OCC(=O)[C@@]12OC(C3CCCCC3)O[C@@H]1CC1C3CCC4=CC(=O)C=C[C@]4(C)C3[C@@H](O)C[C@@]12C (stereo not given in full)

>  <classification>
yes

$$$$
>  <compound>
CC1=C(c2ccc(NN=C(C#N)C#N)cc2)NNC(=O)C1

>  <classification>
no

$$$$
>  <compound>
CC(O)C(N)C(=O)O (stereo not given)

>  <classification>
no

$$$$
>  <compound>
CC1OC(OCC2OC(Oc3c(-c4ccc(OCCO)c(OCCO)c4)oc4cc(OCCO)cc(O)c4c3=O)C(O)C(O)C2O)[C@@H](O)C(O)C1O (stereo not given in full)

>  <classification>
no

$$$$
>  <compound>
Cc1ccc(Nc2ncccc2C(=O)O)cc1C

>  <classification>
no

$$$$
>  <compound>
CNC1=CN(O)C(c2ccccc2)=c2cc(Cl)ccc2=N1

>  <classification>
no

$$$$
>  <compound>
C=CCN1CC(C(=O)N(CCCN(C)C)C(=O)NCC)CC2c3cccc4[nH]cc(c34)CC21 (stereo not given)

>  <classification>
yes

$$$$
>  <compound>
C=C(NCc1ccccc1)c1ccccc1O

>  <classification>
no

$$$$
>  <compound>
CCCCCCCCCCCCCCCC(=O)OC[C@H](O)[C@H]1OC[C@@H](O)[C@@H]1O

>  <classification>
no

$$$$
>  <compound>
CCCCC/C(C=O)=C/c1ccccc1

>  <classification>
no

$$$$
>  <compound>
CO[C@H]1OC2O[C@@]3(C)CC[C@H]4[C@H](C)CC[C@@H]([C@H]1C)[C@@]24OO3 (stereo not given in full)

>  <classification>
yes

$$$$
>  <compound>
OCC1O[C@@H](O[C@@H]2C(CO)OC(O)C(O)C2O)C(O)C(O)C1O (stereo not given in full)

>  <classification>
no

$$$$
>  <compound>
Cc1ccc(/C=C2/C(=O)C3(C)CCC2C3(C)C)cc1 (stereo not given)

>  <classification>
no

$$$$
>  <compound>
CO/N=C(/C(=O)N[C@@H]1C(=O)N2C(C(=O)O)=C(CSC(=O)c3ccco3)CSC12)c1csc(N)n1 (stereo not given in full)

>  <classification>
no

$$$$
